Overview of reported RAM network inhibition across a group of compounds:
test: RAM signaling pathway blockade in yeast – S. cerevisiae, Pdr1DBD-CYC8 efflux-inhibited sensitized strain, primary screen (AID 1298);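 also: 0% = DMSO untreated cells without growth and 100% = 10 µM 1-NA-PP1 full growth; higher means more yeast growth rescued from 5-FOA killing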; settings: S. cerevisiae cbk1-as DSE1-URA3 strain, 5-FOA growth OD615, 2 d; at 50 µM; stronger effect = higher value
Give the value in % but do not write % after it.

Answered examples (10):
• Cc1ccccc1Cn1ccc(NC(=O)c2onc(C)c2Cl)n1 = 4.82
• Cc1cc(=O)oc2c1ccc1oc(/C(=N/O)c3ccccc3)c(C)c12 = 9.44
• Cc1cc(C)nc(SCc2ccc3nonc3c2)n1 = 3.64
• CCC1CCCCN1CCNS(=O)(=O)c1ccc2c(c1)oc(=O)n2C (configuration not stated) = -1.43
• COc1cc(-c2nc(-c3ccncc3)no2)cc(OC)c1OC = 3.72
• Cc1cn2c(-c3ccc(Cl)cc3)nnc2s1 = 4.88
• Clc1ccc(Nc2ncnc3c2cnn3-c2ccccc2)cc1 = -0.47
• Cc1cc(NC(=O)CS(=O)(=O)c2cn(Cc3ccccc3Cl)c3ccccc23)no1 = 3.11
• Cn1c2c(c(=O)n(C)c1=O)C1c3ccccc3OCC1C(C)(C)O2 (configuration not stated) = 0.68
• CCOc1ccccc1C(=O)Nc1nnc(CC)s1 = 1.61

Name the reported RAM network inhibition value associated with the compound Cc1cc(C(=O)NCc2cccs2)n(-c2ccccc2)n1
5.86

Name the reported RAM network inhibition value associated with the compound O=C(c1cnn(-c2ccccc2)c1-n1cccc1)N1CCN(C2CCCCC2)CC1
2.87
